Reference for the values: paper PMC8634879

# Tested on: Huh-7 cells
# PROTOCOL: Cell proliferation assay (MTT), Huh-7
# Format: cell-based
# MEASUREMENT CONTEXT: Homo sapiens, Table 2, average of at least three independent replicates ± SD, read-out: Anti-proliferative activities (IC50, μM) Huh-7
# Experimental: The antibodies recognizing LC3, p62/SQSTM1, RalA, RalB, and GAPDH were purchased from Proteintech (Wuhan, China). […] The in vitro RalA/B bioactivity assays were performed following methods outlined in previous reports. […] Remaining RalA/B was detected by the OD450 values which were collected by using a plate reader. […]
Threshold 8 µM. IC50 below it: rule met. IC50 at it or above: rule not met.

Worked cases, answers included:
Cc1ccc(S(=O)(=O)NC2=C(C#N)C(c3ccc(C(F)(F)F)cc3)c3c(C)nn(-c4ccccc4)c3O2)cc1 (centres unmarked) = rule not met
COc1ccc(S(=O)(=O)NC2=C(C#N)C(c3ccc(C(F)(F)F)cc3)c3c(C)nn(-c4ccccc4)c3O2)cc1 (centres unmarked) = rule met
Cc1nn(-c2ccccc2)c2c1C(c1ccc(C(F)(F)F)cc1)C(C#N)=C(NS(=O)(=O)c1ccc(C(F)(F)F)cc1)O2 (centres unmarked) = rule not met

Qu. In plain terms, does Cc1nn(-c2ccccc2)c2c1C(c1ccc(C(F)(F)F)cc1)C(C#N)=C(NS(=O)(=O)c1cccs1)O2 (centres unmarked) come in under 8 µM for IC50?
Ans. rule not met

Qu. is_below(IC50, 8 µM) for Cc1ccc(S(=O)(=O)NC2=C(C#N)C(c3cccnc3)c3c(C)nn(-c4ccccc4)c3O2)cc1 (centres unmarked) ?
Ans. rule met

Qu. Record Cc1ccc(S(=O)(=O)NC2=C(C#N)C(c3ccsc3)c3c(C)nn(-c4ccccc4)c3O2)cc1 (centres unmarked) : is its IC50 strictly below 8 µM?
Ans. rule not met

Qu. Dear reviewer, please state whether Cc1ccc(S(=O)(=O)NC2=C(C#N)C(c3ccncc3)c3c(C)nn(-c4ccccc4)c3O2)cc1 (centres unmarked) has IC50 strictly beneath 8 µM.
Ans. rule not met

Qu. Quick check: does Cc1nn(-c2ccccc2)c2c1C(c1ccc(C(F)(F)F)cc1)C(C#N)=C(NS(=O)(=O)c1ccc(F)cc1F)O2 (centres unmarked) have IC50 under 8 µM?
Ans. rule met

----------
# System: HepG2 cells
# PROTOCOL: Cell proliferation assay (MTT), HepG2
# Format: cell-based
# MEASUREMENT CONTEXT: Homo sapiens, HepG2, Table 2; average of at least three independent replicates ± SD; read-out: Anti-proliferative activities (IC50, μM) HepG2
MEASURE: IC50 (µM)
Reply numerically in µM, unit not repeated.

Some compounds with recorded IC50:
Cc1ccc(S(=O)(=O)NC2=C(C#N)C(c3cccnc3)c3c(C)nn(-c4ccccc4)c3O2)cc1 (stereo not shown) [4k] = 5.63
Cc1nn(-c2ccccc2)c2c1C(c1ccc(C(F)(F)F)cc1)C(C#N)=C(NS(=O)(=O)c1ccc(C(F)(F)F)cc1)O2 (stereo not shown) [4q] = 8.65

Qu. Look at this compound and give its reported IC50. Cc1ccc(S(=O)(=O)NC2=C(C#N)C(c3ccc(C(F)(F)F)cc3)c3c(C)nn(-c4ccccc4)c3O2)cc1 (stereo not shown) [4n]
Ans. 8.46

Qu. Form field: reported IC50 of Cc1ccc(S(=O)(=O)NC2=C(C#N)C(c3ccsc3)c3c(C)nn(-c4ccccc4)c3O2)cc1 (stereo not shown) [4m]
Ans. 9.15

----------
# ASSAYED TARGET: RalA (Homo sapiens, UniProt P11233)
# Construct: expressed in transfected cells; host or cells: HepG2 (from b6; the methods paragraph names no cell line)
# Sequence (P11233 1-203 limits assumed): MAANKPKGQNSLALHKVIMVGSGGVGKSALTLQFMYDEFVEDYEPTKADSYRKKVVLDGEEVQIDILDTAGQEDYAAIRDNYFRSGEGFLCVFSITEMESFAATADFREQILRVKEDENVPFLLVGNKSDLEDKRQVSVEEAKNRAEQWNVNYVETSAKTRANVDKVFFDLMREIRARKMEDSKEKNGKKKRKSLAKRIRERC
# PROTOCOL: ELISA-based RalA activity assay (RalBP1-coated plates, lysates of compound-treated cells)
# Type: biochemical
# MEASUREMENT CONTEXT: enzymatic inhibition; average of at least three independent replicates ± SD; read-out: Kinase activities (IC50, μM) RalA
MEASURE: IC50 (µM)
Give the quantity in µM, number only.

Cc1ccc(S(=O)(=O)NC2=C(C#N)C(c3ccc(C(F)(F)F)cc3)c3c(C)nn(-c4ccccc4)c3O2)cc1 (centres unmarked) = 1.81
Cc1nn(-c2ccccc2)c2c1C(c1ccc(C(F)(F)F)cc1)C(C#N)=C(NS(=O)(=O)c1cccs1)O2 (centres unmarked) = 0.96

Qu. # IC50 lookup, item Cc1nn(-c2ccccc2)c2c1C(c1ccc(C(F)(F)F)cc1)C(C#N)=C(NS(=O)(=O)c1ccc(C(F)(F)F)cc1)O2 (centres unmarked)
Ans. 1.02

Qu. What value of IC50 has been reported for the following compound? COc1ccc(S(=O)(=O)NC2=C(C#N)C(c3ccc(C(F)(F)F)cc3)c3c(C)nn(-c4ccccc4)c3O2)cc1 (centres unmarked)
Ans. 0.22

Qu. Form field: reported IC50 of Cc1ccc(S(=O)(=O)NC2=C(C#N)C(c3ccncc3)c3c(C)nn(-c4ccccc4)c3O2)cc1 (centres unmarked)
Ans. 1.24

Qu. What IC50 value was documented for this compound, Cc1nn(-c2ccccc2)c2c1C(c1ccc(C(F)(F)F)cc1)C(C#N)=C(NS(=O)(=O)c1ccc(F)cc1F)O2 (centres unmarked) ?
Ans. 0.66

Qu. Need IC50, item Cc1ccc(S(=O)(=O)NC2=C(C#N)C(c3cccnc3)c3c(C)nn(-c4ccccc4)c3O2)cc1 (centres unmarked)
Ans. 0.75

Qu. Quick one: IC50 of Cc1ccc(S(=O)(=O)NC2=C(C#N)C(c3ccsc3)c3c(C)nn(-c4ccccc4)c3O2)cc1 (centres unmarked) ?
Ans. 1.7

----------
remaining activity at 1 µM for assorted compounds
# ASSAYED TARGET: RalB (Homo sapiens, UniProt P11234)
# Construct: expressed in transfected cells; host or cells: HepG2 (from b6; the methods paragraph names no cell line)
# PROTOCOL: ELISA-based RalB activity assay (RalBP1-coated plates, lysates of compound-treated cells)
# Type: biochemical
# MEASUREMENT CONTEXT: 1 μM compound; % control = active (RalBP1-bound) RalB remaining
Numbers only here, please. The scale is %.

COc1cccc(C2C(C#N)=C(NS(=O)(=O)c3ccccc3)Oc3c2c(C)nn3-c2ccccc2Cl)c1 (centres unmarked) = 58
Cc1ccc(S(=O)(=O)NC2=C(C#N)C(c3cccnc3)c3c(C)nn(-c4ccccc4Cl)c3O2)cc1 (centres unmarked) = 65
Cc1ccc(S(=O)(=O)NC2=C(C#N)C(c3ccco3)c3c(C)nn(-c4ccccc4)c3O2)cc1 (centres unmarked) = 70
COc1cccc(C2C(C#N)=C(NS(=O)(=O)c3ccccc3[N+](=O)[O-])Oc3c2c(C)nn3-c2ccccc2Cl)c1 (centres unmarked) = 60
Cc1ccc(S(=O)(=O)NC2=C(C#N)C(c3ccsc3)c3c(C)nn(-c4ccccc4Cl)c3O2)cc1 (centres unmarked) = 78
Cc1ccc(S(=O)(=O)NC2=C(C#N)C(c3ccc(Br)cc3F)c3c(C)nn(-c4ccccc4)c3O2)cc1 (centres unmarked) = 83
Cc1ccc(S(=O)(=O)NC2=C(C#N)C(c3ccccc3)c3c(C)nn(-c4ccccc4)c3O2)cc1 (centres unmarked) = 85

Pending compound:
Qu. Any idea what remaining activity at 1 µM was measured for COc1ccc(S(=O)(=O)NC2=C(C#N)C(c3ccc(C(F)(F)F)cc3)c3c(C)nn(-c4ccccc4)c3O2)cc1 (centres unmarked) ?
Ans. 22

----------
remaining activity at 1 µM values for the molecules below.
# ASSAYED TARGET: RalB (Homo sapiens, UniProt P11234)
# Construct: expressed in transfected cells; host or cells: HepG2 (from b6; the methods paragraph names no cell line)
# Sequence (P11234 1-203 limits assumed): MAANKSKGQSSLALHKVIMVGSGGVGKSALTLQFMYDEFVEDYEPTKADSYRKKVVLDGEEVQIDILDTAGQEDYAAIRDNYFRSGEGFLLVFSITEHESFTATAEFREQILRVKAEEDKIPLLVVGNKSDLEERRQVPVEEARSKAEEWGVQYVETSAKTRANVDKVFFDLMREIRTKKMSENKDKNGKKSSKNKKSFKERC
# PROTOCOL: ELISA-based RalB activity assay (RalBP1-coated plates, lysates of compound-treated cells)
# Format: biochemical
# MEASUREMENT CONTEXT: 1 μM compound; % control = active (RalBP1-bound) RalB remaining
# value in %; strip the unit string

Qu. I would be grateful if you could share the reported remaining activity at 1 µM for Cc1ccc(S(=O)(=O)NC2=C(C#N)C(c3ccccc3)c3c(C)nn(-c4ccc(Cl)cc4)c3O2)cc1 (stereo not shown) [4ac] .
Ans. 68

Qu. GET /values?readout=remaining activity at 1 µM&item= Cc1ccc(S(=O)(=O)NC2=C(C#N)C(c3cccc(Br)c3)c3c(C)nn(-c4ccccc4)c3O2)cc1 (stereo not shown) [4f]
Ans. 71

Qu. Look up remaining activity at 1 µM for this molecule: Cc1ccc(S(=O)(=O)NC2=C(C#N)C(c3ccco3)c3c(C)nn(-c4ccccc4Cl)c3O2)cc1 (stereo not shown) [4s]
Ans. 72

Qu. Please give the measured remaining activity at 1 µM for this molecule: COc1ccc(C2C(C#N)=C(NS(=O)(=O)c3ccc(C)cc3)Oc3c2c(C)nn3-c2ccccc2)cc1 (stereo not shown) [4i]
Ans. 60
